# method-summary: Caspase-3/7 induction in CHO-K1 cells by small molecules, qHTS cell viability counter screen (AID 1346979); note: nearly all actives have a fitted effect of over 35% in size
# experimental-setup: CellTiter-Fluor fluorescence, 17 h; series mostly up to 92.4 µM
Inconclusive results are not listed. Calls of active or inactive are those of the source. Calls come from the whole dose curve; as a rule, active = well fitted cell-killing curve with a large enough effect in the repeat runs; inconclusive = weak or mixed curves, or effect the other way; inactive = no such curve, though single readings can be large or run the other way.
Select the matching outcome among true = active, false = inactive

Recorded results for 3 compounds are shown here.
CCOC(=O)C1=C(C)NC(C)=C(C(=O)OC)C1c1cccc(Cl)c1Cl (stereo unspecified); true
C[C@]1(Cn2ccnn2)[C@H](C(=O)O)N2C(=O)C[C@H]2S1(=O)=O; false
CN1CCCN=C1COC(=O)C(O)(c1ccccc1)C1CCCCC1 (stereo unspecified); false

Task: Check the results log: what was the call for O=C(O)CCc1nc(-c2ccccc2)c(-c2ccccc2)o1 ?
Result: false

Task: Check the results log: what was the call for Oc1cc2c(cc1O)[C@H]1c3ccc(O)c(O)c3OC[C@@]1(O)C2 ?
Result: true

Task: Check the results log: what was the call for CC1(C)S[C@@H]2[C@H](NC(=O)C(c3ccccc3)S(=O)(=O)O)C(=O)N2[C@H]1C(=O)O (stereo partly specified) ?
Result: false

Task: Check the results log: what was the call for CCOC(=O)[C@H](CCc1ccccc1)N[C@@H](C)C(=O)N(CC(=O)O)C1Cc2ccccc2C1 ?
Result: false

Task: Check the results log: what was the call for O[C@@H]1CO[C@H]2[C@@H]1OC[C@@H]2O ?
Result: false

Task: Check the results log: what was the call for C[C@@H](O[C@H]1OCCN(Cc2n[nH]c(=O)[nH]2)[C@H]1c1ccc(F)cc1)c1cc(C(F)(F)F)cc(C(F)(F)F)c1 ?
Result: true

====

# method-summary: A CellTox Green Cytotoxicity Assay to monitor cytotoxicity in HEK293 cells - 8 hour (AID 1224884); note: nearly all actives have a fitted effect of over 35% in size
# experimental-setup: CellTox Green fluorescence; series mostly up to 76.8 µM
Results filed as inconclusive are left out. Calls of active or inactive are those of the source. Calls come from the whole dose curve; as a rule, active = well fitted activation curve with a large enough effect in the repeat runs; inconclusive = weak or mixed curves; inactive = flat fitted curve, though single readings scatter.
reported-endpoint: outcome

C/C=C\C/C=C/CCCCCCCCOC(C)=O; inactive
O=C(O)CCCCCCCCCCCBr; inactive
O=C1c2ccccc2C(=O)C1(O)O; inactive
O=C1NC(=O)c2cc([N+](=O)[O-])ccc21; inactive
CCCCCCCCN; inactive
CCCCCCCCCCC(=O)O; inactive

Please fill in: outcome reported for CCCC(=O)C(=O)O = inactive

Please fill in: outcome reported for CC1(C)O[C@@H]2C[C@H]3[C@@H]4C[C@H](F)C5=CC(=O)C=C[C@]5(C)[C@H]4[C@@H](O)C[C@]3(C)[C@]2(C(=O)CO)O1 = inactive

Please fill in: outcome reported for Nc1ncnc2c1ncn2[C@H]1CC[C@@H](CO)O1 = inactive

Please fill in: outcome reported for O=C(CCc1ccc(O)cc1)c1c(O)cc(O)cc1O = inactive

Please fill in: outcome reported for CCC(C)(C)OC = inactive

Please fill in: outcome reported for c1cc(N(CC2CO2)CC2CO2)ccc1Cc1ccc(N(CC2CO2)CC2CO2)cc1 (stereo unspecified) = inactive

Please fill in: outcome reported for CN1C[C@H](C(=O)N[C@]2(C)O[C@@]3(O)[C@@H]4CCCN4C(=O)[C@H](Cc4ccccc4)N3C2=O)C[C@@H]2c3cccc4[nH]cc(c34)C[C@H]21 = inactive

Please fill in: outcome reported for CO/N=C(/C(=O)N[C@@H]1C(=O)N2C(C(=O)O)=C(COC(N)=O)CS[C@H]12)c1ccco1 = inactive

Please fill in: outcome reported for Cc1ccc2c(Br)cc(Br)c(O)c2n1 = inactive

Please fill in: outcome reported for O=C(OC(=O)c1ccccc1)c1ccccc1 = inactive

Please fill in: outcome reported for CCOc1cccc(-n2cc(C(=O)N3CCN(c4cc(C(=O)O)c5ccccc5c4)CC3)nc2-c2ccc(C)cc2)c1 = inactive

Please fill in: outcome reported for C[C@@H](O[C@H]1OCCN(Cc2n[nH]c(=O)[nH]2)[C@H]1c1ccc(F)cc1)c1cc(C(F)(F)F)cc(C(F)(F)F)c1 = inactive

Please fill in: outcome reported for CN1C(=O)c2ccccc2C1=O = inactive

Please fill in: outcome reported for CC1(C)[C@@H](OC(=O)CCC(=O)O)CC[C@]2(C)[C@H]3C(=O)C=C4[C@@H]5C[C@@](C)(C(=O)O)CC[C@]5(C)CC[C@@]4(C)[C@]3(C)CC[C@@H]12 = inactive

Please fill in: outcome reported for CC[N+](CC)(CCNC(=O)C(=O)NCC[N+](CC)(CC)Cc1ccccc1Cl)Cc1ccccc1Cl = inactive
